Ref: ChEMBL document CHEMBL4004885

- Test system: HGC-27
- Procedure details: Cytotoxicity against human HGC27 cells assessed as decrease in cell proliferation after 48 hrs by MTT assay
- Assay type: functional, cell-based
- Study conditions: HGC-27, 48 h
Let's look at some compounds and their measured pIC50.
// pIC50 is dimensionless: -log10 of concentration (M)

stdin: Provide pIC50, recorded with HGC-27, of CCCCCCCC(=O)NOC(=O)[C@H](CC)[C@H]1CC[C@H](C)[C@H]([C@@H](C)[C@H](O)[C@H](C)C(=O)[C@H](CC)[C@H]2O[C@]3(C=C[C@@H](O)[C@]4(CC[C@@](C)([C@H]5CC[C@](O)(CC)[C@H](C)O5)O4)O3)[C@H](C)C[C@@H]2C)O1
stdout: 5.87

stdin: Provide pIC50, recorded with HGC-27, of C/C=C/C=C/C(=O)NOC(=O)[C@H](CC)[C@H]1CC[C@H](C)[C@H]([C@@H](C)[C@H](O)[C@H](C)C(=O)[C@H](CC)[C@H]2O[C@]3(C=C[C@@H](O)[C@]4(CC[C@@](C)([C@H]5CC[C@](O)(CC)[C@H](C)O5)O4)O3)[C@H](C)C[C@@H]2C)O1
stdout: 5.58

stdin: Provide pIC50, recorded with HGC-27, of CC[C@@H](C(=O)[C@@H](C)[C@@H](O)[C@H](C)[C@@H]1O[C@@H]([C@@H](CC)C(=O)ONC(C)=O)CC[C@@H]1C)[C@H]1O[C@]2(C=C[C@@H](O)[C@]3(CC[C@@](C)([C@H]4CC[C@](O)(CC)[C@H](C)O4)O3)O2)[C@H](C)C[C@@H]1C
stdout: 5.65

stdin: Provide pIC50, recorded with HGC-27, of CC[C@@H](C(=O)[C@@H](C)[C@@H](O)[C@H](C)[C@@H]1O[C@@H]([C@@H](CC)C(=O)O)CC[C@@H]1C)[C@H]1O[C@]2(C=C[C@@H](O)[C@]3(CC[C@@](C)([C@H]4CC[C@](O)(CC)[C@H](C)O4)O3)O2)[C@H](C)C[C@@H]1C
stdout: 5.59

stdin: Provide pIC50, recorded with HGC-27, of CC[C@@H](C(=O)[C@@H](C)[C@@H](O)[C@H](C)[C@@H]1O[C@@H]([C@@H](CC)C(=O)ONC(=O)Cc2ccccc2)CC[C@@H]1C)[C@H]1O[C@]2(C=C[C@@H](O)[C@]3(CC[C@@](C)([C@H]4CC[C@](O)(CC)[C@H](C)O4)O3)O2)[C@H](C)C[C@@H]1C
stdout: 5.89

* * *

- Test system: HGC-27
- Procedure details: Cytotoxicity against human HGC27 cells assessed as decrease in cell proliferation after 48 hrs by MTT assay
- Assay type: functional, cell-based
- Study conditions: HGC-27, 48 h
Test readout: IC50 (nM)
Respond with the bare value in nM.

Solved cases (2 shown):
Smiles structure	IC50 / nM
CC[C@@H](C(=O)[C@@H](C)[C@@H](O)[C@H](C)[C@@H]1O[C@@H]([C@@H](CC)C(=O)ONC(=O)CCc2ccccc2)CC[C@@H]1C)[C@H]1O[C@]2(C=C[C@@H](O)[C@]3(CC[C@@](C)([C@H]4CC[C@](O)(CC)[C@H](C)O4)O3)O2)[C@H](C)C[C@@H]1C	1050
CC[C@@H](C(=O)[C@@H](C)[C@@H](O)[C@H](C)[C@@H]1O[C@@H]([C@@H](CC)C(=O)ONC(=O)c2ccc(Br)cc2)CC[C@@H]1C)[C@H]1O[C@]2(C=C[C@@H](O)[C@]3(CC[C@@](C)([C@H]4CC[C@](O)(CC)[C@H](C)O4)O3)O2)[C@H](C)C[C@@H]1C	510

From here, focus on the item given below.
stdin: Quick one: give measured IC50 for CC[C@@H](C(=O)[C@@H](C)[C@@H](O)[C@H](C)[C@@H]1O[C@@H]([C@@H](CC)C(=O)ONC(=O)/C=C/c2ccccc2)CC[C@@H]1C)[C@H]1O[C@]2(C=C[C@@H](O)[C@]3(CC[C@@](C)([C@H]4CC[C@](O)(CC)[C@H](C)O4)O3)O2)[C@H](C)C[C@@H]1C
stdout: 7270
